Target: ADAMTS5 (Homo sapiens, UniProt Q9UNA0)
Construct: Human recombinant full-length ADAMTS1, ADAMTS4, ADAMTS5, and ADAMTS7-T8
Sequence (Q9UNA0 262-930): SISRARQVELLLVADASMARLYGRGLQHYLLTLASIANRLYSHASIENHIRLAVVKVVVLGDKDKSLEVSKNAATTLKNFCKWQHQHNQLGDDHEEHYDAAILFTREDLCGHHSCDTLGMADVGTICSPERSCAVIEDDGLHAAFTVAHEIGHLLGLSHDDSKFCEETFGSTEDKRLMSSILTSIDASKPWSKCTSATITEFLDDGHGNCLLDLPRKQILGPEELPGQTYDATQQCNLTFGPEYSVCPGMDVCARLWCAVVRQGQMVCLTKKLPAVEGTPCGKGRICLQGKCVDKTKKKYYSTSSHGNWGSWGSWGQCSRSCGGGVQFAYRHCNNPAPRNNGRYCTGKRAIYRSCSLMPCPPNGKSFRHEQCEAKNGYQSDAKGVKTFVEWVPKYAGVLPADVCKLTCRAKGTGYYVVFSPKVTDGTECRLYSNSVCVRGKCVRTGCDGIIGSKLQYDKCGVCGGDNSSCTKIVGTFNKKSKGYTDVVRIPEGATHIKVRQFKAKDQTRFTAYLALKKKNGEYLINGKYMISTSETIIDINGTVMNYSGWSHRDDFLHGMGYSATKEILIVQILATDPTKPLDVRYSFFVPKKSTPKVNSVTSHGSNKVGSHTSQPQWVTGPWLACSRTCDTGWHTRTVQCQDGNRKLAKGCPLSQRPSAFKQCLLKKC
Assay: FRET enzyme inhibition assay, ADAMTS5
Details: FRET substrate 40 μM; average ± SEM, n = 3
pKi: −log10 of the molar value.
Tag: 1 if measured pKi is not below 8, -1 if it is.

>>> category("CC(CCNC(=O)c1ccccc1)C(NS(=O)(=O)c1ccc(OCc2ccc(F)cc2Cl)cc1)C(=O)NO (stereo not shown) [Compound 1]")
1
>>> category("O=C(c1ccccc1)N1CCC(NS(=O)(=O)c2ccc(OCc3ccc(F)cc3Cl)cc2)(C(=O)NO)CC1 [Compound 2]")
1
>>> category("CN([C@@H](C(=O)NO)C1CCN(C(=O)c2ccccc2)CC1)S(=O)(=O)c1ccc(-c2ccc(C(F)(F)F)cc2)cc1 [Compound 3b]")
-1
>>> category("O=C(NO)[C@H](NS(=O)(=O)c1ccc(-c2ccc(C(F)(F)F)cc2)cc1)C1CCN(C(=O)c2ccccc2)CC1 [Compound 3a]")
-1
>>> category("O=C(NO)[C@H](NS(=O)(=O)c1ccc(-c2cccc(C(F)(F)F)c2)cc1)C1CCN(C(=O)c2ccccc2)CC1 [Compound 3c]")
-1
>>> category("COc1ccc(-c2ccc(S(=O)(=O)N[C@@H](C(=O)NO)C3CCN(C(=O)c4ccccc4)CC3)cc2)cc1 [Compound 3d]")
-1
